# System: noasagao (blue morningglory, Ipomoea indica)
# experiment_description: Experiment 9 foliage treatment: noasagao
# Type: in vivo
# Design: key: 5: completely killed; 4: seriously injured; 3: considerably injured; 2: somewhat injured; 1: slightly injured; 0: not injured (normally grown)
# assay_context: 4 g/10a, foliage spray of wettable powder suspension, evaluated 4 weeks after treatment
property: Herbicidal Effet noasagao
In your answer, state the number alone without any accompanying words.

Examples with answers:
compound="C#CC(C)Oc1cc(N(C(=O)C2=C(C(=O)OC)CCCC2)C(=O)c2ccc(Cl)s2)c(F)cc1Cl (centres unmarked) [compound 97]" property="Herbicidal Effet noasagao" measured=4
compound="CCc1cnc(C2=NC(C)(C(C)C)C(=O)N2)c(C(=O)O)c1 (centres unmarked) [Comparative agentC, Pursuit, reference compound]" property="Herbicidal Effet noasagao" measured=3
compound="C#CC(C)Oc1cc(N(C(=O)C2=C(C(=O)OC)CCCC2)C(=O)c2cccs2)c(F)cc1Cl (racemic) [compound 91]" property="Herbicidal Effet noasagao" measured=4
compound="C#CC(C)Oc1cc(N(C(=O)C2=C(C(=O)OCCCC)CCCC2)C(=O)c2ccsc2)c(F)cc1Cl (centres unmarked) [compound 102]" property="Herbicidal Effet noasagao" measured=4

Input: Look up Herbicidal Effet noasagao with noasagao (blue morningglory, Ipomoea indica) for this compound: C#CC(C)Oc1cc(N(C(=O)C2=C(C(=O)OC)CCCC2)C(=O)c2ccsc2)c(F)cc1Cl (centres unmarked) [Compound No. 100]
Output: 5

###

# System: cockspur (Panicum crus-galli)
# experiment_description: Experiment 5 foliage treatment: cockspur
# Format: in vivo
# Set-up: key: 5: completely killed; 4: seriously injured; 3: considerably injured; 2: somewhat injured; 1: slightly injured; 0: not injured (normally grown)
# assay_context: 40 g/10a, foliage spray of wettable powder suspension, evaluated 4 weeks after treatment
property: Herbicidal Effect cockspur
Answer with a bare number; do not write a unit.

The cases that follow already have their Herbicidal Effect cockspur on record.
compound="C#CC(C)Oc1cc(N(C(=O)C2=C(C(=O)OC(C)C)CCCC2)C(=O)c2ccc(Cl)nc2)c(F)cc1Cl (stereo not shown)" measured=1
compound=COC(=O)C1=C(C(=O)N(C(=O)c2cccnc2)c2cc(C(=O)OC)c(Cl)cc2F)CCCC1 measured=1
compound="C#CCOC(=O)C1=C(C(=O)N(C(=O)c2cccnc2)c2cc(OC(C)C#C)c(Cl)cc2F)CCCC1 (stereo not shown)" measured=2
compound="C#CC(C)Oc1cc(N(C(=O)C2=C(C(=O)OCCCC)CCCC2)C(=O)c2cccnc2)c(F)cc1Cl (stereo not shown)" measured=0
compound=COCCOC(=O)C1=C(C(=O)N(C(=O)c2cccnc2)c2cc(C(=O)OC)c(Cl)cc2F)CCCC1 measured=1
compound="C#CC(C)Oc1cc(N(C(=O)C2=C(C(=O)OC3CCCC3)CCCC2)C(=O)c2cccnc2)c(F)cc1Cl (stereo not shown)" measured=1

Could you now look at the following compound, please?
Input: What value of Herbicidal Effect cockspur has been recorded for this entry: C#CC(C)Oc1cc(N(C(=O)C2=C(C(=O)OCCOC)CCCC2)C(=O)c2cccnc2)c(Cl)cc1Cl (stereo not shown)
Output: 1

###

# System: tamagayatsuri (small-flowered umbrellaplant, Cyperus difformis)
# experiment_description: Experiment 7 flooded soil treatment: tamagayatsuri
# Assay type: in vivo
# Design: key: 5: completely killed; 4: seriously injured; 3: considerably injured; 2: somewhat injured; 1: slightly injured; 0: not injured (normally grown)
# assay_context: 12.5 g/10a, evaluated 4 weeks after treatment
property: Herbicidal Effect tamagayatsuri
Lab note: jot down the number only; don't add units.

compound="COC(=O)C1=C(C(=O)N(C(=O)c2cccs2)c2cc(OC3CCCC3)c(Cl)cc2F)CCCC1 [compound 98]" measured=5

Input: What does the data say about its Herbicidal Effect tamagayatsuri? Entry: C#CC(C)Oc1cc(N(C(=O)C2=C(C(=O)OCCC)CCCC2)C(=O)c2ccsc2)c(F)cc1Cl (stereo not shown) [compound 101]
Output: 5

Input: And then C#CC(C)Oc1cc(N(C(=O)C2=C(C(=O)OCCC)CCCC2)C(=O)c2cccs2)c(F)cc1Cl (stereo not shown) [compound 92] , what is it?
Output: 5

Input: And COC(=O)COc1cc(N(C(=O)C2=C(C(=O)OC)CCCC2)C(=O)c2cccs2)c(F)cc1Cl [compound 99] ?
Output: 5
